Recorded measurements of melting point, one per entry

Sample records with melting point:
>  <COMPOUND>
COC(=O)Cc1c(C(=O)OC)ccn1CCBr

>  <REPORTED_PROPERTY>
melting point

>  <OBSERVED_RESULT>
129 to 130 °C

$$$$
>  <COMPOUND>
CCC1(CO)COC(C(C)(C)Oc2ccc(Cl)cc2)=N1 (stereo not drawn)

>  <REPORTED_PROPERTY>
melting point

>  <OBSERVED_RESULT>
94 to 95 °C

$$$$
>  <COMPOUND>
OCc1cc(OCc2ccccc2)nn1-c1ccccc1

>  <REPORTED_PROPERTY>
melting point

>  <OBSERVED_RESULT>
87 to 88 °C

$$$$
>  <COMPOUND>
CC1CCc2ccc(O)cc2O1 (stereo not drawn)

>  <REPORTED_PROPERTY>
melting point

>  <OBSERVED_RESULT>
94 to 95 °C

$$$$
>  <COMPOUND>
Cn1c(=O)[nH]c(=O)n(-c2ccc(Sc3nc4ccc(Cl)cc4s3)cc2)c1=O

>  <REPORTED_PROPERTY>
melting point

>  <OBSERVED_RESULT>
232 to 233 °C

$$$$
>  <COMPOUND>
COC(=O)c1ccc(-c2ccccc2-c2nnn(C(C)(C)c3ccccc3)n2)cc1

>  <REPORTED_PROPERTY>
melting point

>  <OBSERVED_RESULT>
97 to 98 °C

$$$$
>  <COMPOUND>
COc1cc(-c2n[nH]c(N)n2)c(OC)cc1C

>  <REPORTED_PROPERTY>
melting point

>  <OBSERVED_RESULT>
248 °C

$$$$
>  <COMPOUND>
CC(C)(C)CCCC(=O)Cn1ccnc1

>  <REPORTED_PROPERTY>
melting point

>  <OBSERVED_RESULT>
45 to 46 °C

$$$$
>  <COMPOUND>
O=C(c1cnoc1)N1CCCCC1

>  <REPORTED_PROPERTY>
melting point

>  <OBSERVED_RESULT>
78 to 81 °C

$$$$
>  <COMPOUND>
CN(CCNC(=C[N+](=O)[O-])SCc1ccccc1)Cc1ccc(Cl)nc1

>  <REPORTED_PROPERTY>
melting point

>  <OBSERVED_RESULT>
119 to 123 °C

$$$$

Ask | Please give the measured melting point for this compound: COc1ccc(C(OC(C)=O)C(COC(C)=O)[N+](=O)[O-])cc1OC (stereo not drawn)
Reply | 85 to 88 °C

Ask | Can you look up the measured melting point of `CCn1c(=O)c(C(=O)NC)c(O)c2ccc(C)nc21` for me?
Reply | 150 to 154 °C

Ask | Any idea what its melting point is? The compound is COC(=O)C1Cc2ccccc2N1c1ncnc2cc(OC)c(OC)cc12 (stereo not drawn)
Reply | 186 to 190 °C

Ask | Query: melting point; subject: `Cc1ccc2c(c1)Sc1cc(C)ccc1O2`
Reply | 69 to 70 °C

// provenance: a melting point compilation (Tetko et al.; mined from patent text by program, amines drawn as free bases though some values may be those of a salt)
